Where do the numbers come from? From ChEMBL document CHEMBL1833968.

Molecular target: Delta-type opioid receptor (Mus musculus)
Sequence (P32300 whole entry): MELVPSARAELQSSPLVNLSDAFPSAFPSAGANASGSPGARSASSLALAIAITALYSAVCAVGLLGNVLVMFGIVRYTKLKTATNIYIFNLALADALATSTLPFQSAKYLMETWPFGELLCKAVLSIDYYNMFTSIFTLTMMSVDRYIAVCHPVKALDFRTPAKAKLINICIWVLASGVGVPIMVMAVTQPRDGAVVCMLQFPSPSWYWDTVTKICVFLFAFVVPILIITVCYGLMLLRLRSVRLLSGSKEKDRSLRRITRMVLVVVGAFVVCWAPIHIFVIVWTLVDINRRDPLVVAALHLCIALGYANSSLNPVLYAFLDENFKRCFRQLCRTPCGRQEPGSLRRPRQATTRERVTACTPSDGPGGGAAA
Assay: Displacement of [3H]DPDPE from mouse delta opioid receptor in whole brain without cerebellum
Exercise: state measured Ki for each of the compounds provided.
One number for each entry, in nM.

1. Oc1ccc2c3c1O[C@H]1[C@]4(CC[C@H]5[C@@H](C2)N(CC2CC2)CC[C@@]351)O[C@H]1CO[C@@H]2N1[C@H]4O[C@]21CC[C@H]2[C@H]3Cc4ccc(O)c5c4[C@@]2(CCN3CC2CC2)[C@H]1O5 | 7.8

Continue with the compound presented below.
Give Delta-type opioid receptor (Mus musculus) Ki for Oc1ccc2c3c1O[C@@H]1[C@]34CCN(CC3CC3)[C@H](C2)[C@]4(O)CC[C@@]12C=N[C@@H]([C@]1(O)CC[C@@]3(O)[C@H]4Cc5ccc(O)c6c5[C@@]3(CCN4CC3CC3)[C@H]1O6)O2
39.6

====

Exercise: state measured Ki for each of the compounds provided.
Target: Kappa-type opioid receptor (Cavia porcellus, UniProt P41144)
Sequence (P41144 whole entry): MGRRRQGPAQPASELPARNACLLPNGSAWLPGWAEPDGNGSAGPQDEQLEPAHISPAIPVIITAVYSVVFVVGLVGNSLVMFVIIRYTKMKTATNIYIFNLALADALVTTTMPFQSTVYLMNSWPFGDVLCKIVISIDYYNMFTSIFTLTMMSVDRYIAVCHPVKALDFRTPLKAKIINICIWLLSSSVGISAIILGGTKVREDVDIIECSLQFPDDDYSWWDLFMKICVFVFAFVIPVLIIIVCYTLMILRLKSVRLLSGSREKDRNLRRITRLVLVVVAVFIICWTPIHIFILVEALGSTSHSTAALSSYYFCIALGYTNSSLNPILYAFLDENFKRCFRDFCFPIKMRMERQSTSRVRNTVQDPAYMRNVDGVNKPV
Answers are plain numbers, in nM.

Reference set, count: 3
1) CC(C)CN1CC[C@]23c4c5ccc(O)c4O[C@H]2[C@]2(CC[C@@]3(O)[C@H]1C5)O[C@H]1CO[C@@H]3N1[C@H]2O[C@]31CC[C@@]2(O)[C@H]3Cc4ccc(O)c5c4[C@@]2(CCN3CC(C)C)[C@H]1O5 | 119
2) Oc1ccc2c3c1O[C@H]1[C@]4(CC[C@@]5(O)[C@@H](C2)N(CC2CCC2)CC[C@]315)O[C@H]1CO[C@@H]2N1[C@H]4O[C@]21CC[C@@]2(O)[C@H]3Cc4ccc(O)c5c4[C@@]2(CCN3CC2CCC2)[C@H]1O5 | 176
3) Oc1ccc2c(c1)[C@]13CCN(CC4CC4)[C@H](C2)[C@]1(O)CC[C@@]1(C3)O[C@H]2CO[C@@H]3N2[C@H]1O[C@]31CC[C@@]2(O)[C@H]3Cc4ccc(O)cc4[C@@]2(CCN3CC2CC2)C1 | 8.67

Give me Ki for each of these compounds, listed below.
1. Oc1ccc2c3c1O[C@H]1[C@]4(CC[C@@]5(O)[C@@H](C2)N(CC2CC2)CC[C@]315)O[C@@H]1CO[C@H]2N1[C@@H]4O[C@]21CC[C@@]2(O)[C@H]3Cc4ccc(O)c5c4[C@@]2(CCN3CC2CC2)[C@H]1O5
2. CN1CC[C@]23c4c5ccc(O)c4O[C@H]2[C@]2(CC[C@@]3(O)[C@H]1C5)O[C@H]1CO[C@@H]3N1[C@H]2O[C@]31CC[C@@]2(O)[C@H]3Cc4ccc(O)c5c4[C@@]2(CCN3C)[C@H]1O5
3. Oc1ccc2c3c1O[C@@H]1[C@]34CCN(CC3CC3)[C@H](C2)[C@]4(O)CC[C@@]12C=N[C@H]([C@]1(O)CC[C@@]3(O)[C@H]4Cc5ccc(O)c6c5[C@@]3(CCN4CC3CC3)[C@H]1O6)O2
4. Oc1ccc2c3c1O[C@H]1[C@]4(CC[C@H]5[C@@H](C2)N(CC2CC2)CC[C@@]351)O[C@H]1CO[C@@H]2N1[C@H]4O[C@]21CC[C@H]2[C@H]3Cc4ccc(O)c5c4[C@@]2(CCN3CC2CC2)[C@H]1O5
5. Oc1ccc2c3c1O[C@H]1[C@]4(CC[C@@]5(O)[C@@H](C2)N(CC2CC2)CC[C@]315)O[C@H]1CO[C@@H]2N1[C@H]4O[C@]21CC[C@@]2(O)[C@H]3Cc4ccc(O)c5c4[C@@]2(CCN3CC2CC2)[C@H]1O5
6. Oc1ccc2c3c1O[C@@H]1[C@]34CCN(CC3CC3)[C@H](C2)[C@]4(O)CC[C@@]12C=N[C@@H]([C@]1(O)CC[C@@]3(O)[C@H]4Cc5ccc(O)c6c5[C@@]3(CCN4CC3CC3)[C@H]1O6)O2

1: 247; 2: 337; 3: 1.16; 4: 6.36; 5: 2.75; 6: 1.66
